Tested on: Wolbachia pipientis
Assay: Anti-Wolbachia Cell-Based Screen
Type: functional
Set-up: scale not given: in the data most compounds retested in dose-response had high values
Conditions: 5 µM
Screen size: about 48,000 compounds; about 13,000 (27%) showed an effect of 50% or more. This is one part of the list.
MEASUREMENT_NAME: Percent Effect (%)

1) Cc1cc(C)n(CC2CN(CC(=O)Nc3ccncc3)CCO2)n1 (stereo not given) :: 89.28
2) CN(C)c1cc2c(nn1)CCN(C(=O)c1cc3c(s1)CCCC3)C2 :: 1.352
3) CN(C)c1cc(C(=O)N2CCN(c3cnccn3)CC2)ccn1 :: -5.802
4) CCC(O)CN1CCN(C(=O)c2sccc2C2CC2)CC1 (stereo not given) :: 131.2
5) CCc1nnsc1C(=O)N1CCN(CC(O)CC)CC1 (stereo not given) :: -1.027
6) CC(C)C(=O)N1CCC12CCCN(C(=O)c1ccnnc1)C2 (stereo not given) :: -3.572
7) Cc1cc(S(=O)(=O)NCC(O)c2sccc2C)ccc1F (stereo not given) :: 4.369
8) CC(C)=CCN1CCOC(Cn2nc(C)cc2C)C1 (stereo not given) :: -20.01
9) Cc1nc(C2CCCN2C(=O)c2cc3c(s2)CCCC3)no1 (stereo not given) :: -3.152
10) CC(C)C(=O)N1CCC12CCCN(C(=O)c1ccccc1)C2 (stereo not given) :: -15.79
11) Cc1cc(C)n(CC2CN(CCc3ccncc3)CCO2)n1 (stereo not given) :: -8.109
12) Cc1cccnc1CC(C)N(C)C(=O)c1ccoc1C (stereo not given) :: -11.81
13) CC(C)C(=O)N1Cc2ccccc2CC2(CCCN2C)C1 (stereo not given) :: 90.17
14) O=C(CN1CCOC(Cn2cccn2)C1)NC(C1CC1)C1CC1 (stereo not given) :: -1.772
15) C[C@H](C(=O)N1Cc2ccccc2CC2(CCCN2C)C1)c1ccccc1 (stereo not given in full) :: 111.3

###

System: Wolbachia pipientis
Test: Anti-Wolbachia Cell-Based Screen
Format: functional
Parameters: scale not given: in the data most compounds retested in dose-response had high values
Settings: 5 µM
Out of some 48,000 compounds screened, about 13,000 (27%) showed an effect of 50% or more. This is one part of the list.
MEASUREMENT_NAME: Percent Effect

1) O=C(c1cccs1)N1CCc2ncnc(C3CCOC3)c2CC1 (stereo unspecified) :: -39.43%
2) CCNc1ncc(C(=O)N(C)Cc2nc3ccccc3n2C)cn1 :: -2.006%
3) Cc1nc2[nH]cnc(NCCCN3CCOCC3)c-2n1 :: 111.6%
4) Cc1cnc(N2Cc3cnn(Cc4ccc(F)cc4)c3C2)nc1N(C)C :: 15.57%
5) CCc1c(C)nc2ccccc2c1N1CCC(O)CC1 :: 26.44%
6) CN(C)[C@H]1C[C@@H](Cc2cc(-c3ccc(F)cc3)on2)C1(C)C :: -8.527%
7) CC1(C)CC(NC(=O)c2cnn(-c3ccccc3F)c2N)CC(C)(C)N1 :: 151.8%
8) CC(C)C(=O)Nc1cc(C(=O)NC2CC(C)(C)NC(C)(C)C2)nn1C :: -26.3%
9) CCc1cc(CNC(=O)N2Cc3ccccc3N(C)CC2C)on1 (stereo unspecified) :: 12.48%
10) CCC(C)Oc1cc(C(=O)N(c2cccnc2)C(C)C)ccn1 (stereo unspecified) :: -13.41%
11) Cc1c(C(=O)NC2CC(C)(C)NC(C)(C)C2)cnn1-c1ccc(F)cc1 :: -13.93%
12) CN1CCCC1CNC(=O)CCCOCc1ccccc1 (stereo unspecified) :: -8.407%
13) Cc1oc(-c2ccc(Cl)cc2)nc1C(=O)NC1=NCCS1 :: -49.42%
14) COC1CCN(CCNc2ncc(Br)cc2C)CC1 :: 16.05%
15) COc1ccccc1-c1noc(CNc2ccc(F)cc2OCCO)n1 :: 0.4936%
16) CC(=O)N1CCCN(S(=O)(=O)c2cc3ccccc3o2)CC1 :: -15.12%
17) Cc1noc(C)c1CCC(=O)Nc1ccn(C)n1 :: 102.9%
18) COCC(O)CN(C)C(=O)c1cccc(-c2csc(C)n2)c1 (stereo unspecified) :: -1.754%
19) O=C(CCSc1ccccc1)NCCn1nc2ccccn2c1=O :: 3.117%
20) CC(C)C(C)N(C)Cc1nnc(-c2ccc(Br)s2)o1 (stereo unspecified) :: 27.84%
21) Cn1c(C2CCCN2C(=O)CN2CSCC2=O)nc2ccccc21 (stereo unspecified) :: -5.788%
22) O=c1n(CCNc2cccc3ccccc23)nc2ccccn12 :: 88.07%
23) CN(C)c1nccc(N(C)Cc2nc3ccccc3n2C)n1 :: -8.65%
24) CSC(C)CC(=O)N1CCC(n2ccnn2)CC1 (stereo unspecified) :: 6.562%
25) CN1CCCC1CCNC(=O)Nc1ccccc1 (stereo unspecified) :: 124.8%
26) Cc1cc(CN(C)C(=O)NC(C)Cc2ccco2)no1 (stereo unspecified) :: 4.671%

###

Tested on: Wolbachia pipientis
Experiment: Anti-Wolbachia Cell-Based Screen
Assay type: functional
Parameters: scale not given: in the data most compounds retested in dose-response had high values
Settings: 5 µM
Screen size: about 48,000 compounds; about 13,000 (27%) showed an effect of 50% or more. This is one part of the list.
MEASUREMENT_NAME: Percent Effect (%)

1. Cc1ccc(C(CNCC2CC2)N2CCOCC2)s1 (configuration not stated) :: -12.57
2. O=C(O)c1cc(-c2cccnc2)cc(S(=O)(=O)N2CCCCCC2)c1 :: -2.874
3. Cc1ccc(N2CCO[C@H]3CN(C(=O)c4cccc(C)n4)C[C@H]32)nn1 :: 104.4
4. Cn1ccnc(Nc2ccc3c(c2)CCN3C(=O)c2cccnc2)c1=O :: -3.992
5. CCn1ccnc1CN1CCC(Oc2cccc(F)c2)(C(=O)O)CC1 :: -6.452
6. CCN1CC(c2ccccc2)CC2(CCN(Cc3ncc[nH]3)CC2)C1 (configuration not stated) :: -4.226
7. CN1CCN(CCCN(C)S(=O)(=O)C2CCCCC2)CC1 :: -3.997
8. O=C1CN(C(=O)OCc2ccccc2)CC(O)CN1Cc1ccco1 (configuration not stated) :: 93.23
9. c1ccc2nc(N3CCCC(Cn4cncn4)C3)cnc2c1 (configuration not stated) :: 3.637
10. COCCN(CCC#N)S(=O)(=O)c1cc(F)cc(F)c1 :: -7.872
11. O=C(O)c1ccc(N2CCC(Cc3ccccc3)CC2)nn1 :: 3.318
12. O=C(NCCc1nnc2n1CCCCC2)N1CCC2(CCOC2)C1 (configuration not stated) :: 10.36
13. COc1nc(N2CCC(CC(N)=O)CC2)ncc1Br :: 4.929
14. Clc1cc(CN2CCCC(Cn3cncn3)C2)c2ncccc2c1 (configuration not stated) :: -5.34
15. CN(C)C(=O)c1cccc(NC(=O)Cc2cc(F)ccc2F)n1 :: -6.771
16. O=C(O)C(F)(F)F.O=C([C@H]1C[C@@H]2[C@@H](C1)OCCN2CC1CC1)N1CCCC1 :: -8.225
17. CCOc1ccnc(N2CCN(Cc3ncccc3C)CC2)n1 :: -12.42
18. Cc1ncc(CNC(=O)Cc2cccs2)c(C2CCCN2C)n1 (configuration not stated) :: 125.2
19. Cc1ncc(CNC(=O)CCc2ccccc2F)c(C2CCCN2C)n1 (configuration not stated) :: 94.99
20. CN(C)C(=O)COC1COC2(CCN(CC3CCOCC3)CC2)C1.O=C(O)C(F)(F)F (configuration not stated) :: 121.3
21. CCOC1COC2(CCN(CC3CCOCC3)CC2)C1.O=C(O)C(F)(F)F (configuration not stated) :: 102.9
22. CCCS(=O)(=O)N1C[C@@H]2CC[C@H](C1)N(Cc1cscn1)C2=O :: -56.87
23. Cc1nccc(CN2CC[C@H](Oc3cccc(F)c3)[C@@](C)(O)C2)n1 :: -4.258
24. COc1ccc(OC)c(-n2cnnc2COC(C)C)c1 :: -1.207
25. O=C(c1ccc(Cl)c(Cl)c1)N1CCCCC1C1OCCO1 (configuration not stated) :: 4.358
26. O=C(NCc1ccc(Cl)s1)c1ccc(N2CCOC2=O)cc1 :: -4.831
27. Cc1ncc(CNC(=O)CCc2cccc(F)c2)c(C2CCCN2C)n1 (configuration not stated) :: 2.906
28. O=C(O)C(F)(F)F.O=S(=O)(N[C@@H]1CCO[C@]2(CCN(CC3CCOCC3)C2)C1)C1CC1 :: -3.129
29. Cc1cc(F)c(S(=O)(=O)NCC(C)(C)N)cc1F.Cl :: 99.53
30. Cc1cc(F)c(S(=O)(=O)NCc2ccnc(N(C)C)n2)cc1F :: -5.146
31. c1ccc(COC2CCN(c3cncc(-n4cccn4)n3)CC2)cc1 :: 1.342
32. Cc1cnccc1-n1nc(C(C)C)nc1CCN(C)S(C)(=O)=O :: -12.77
33. O=S1(=O)CCC(S(=O)(=O)c2cccc(S(=O)(=O)N3CCCCCC3)c2)C1 (configuration not stated) :: 99.56
34. CCNC(=O)CNS(=O)(=O)Cc1cc(-c2ccccc2)no1 :: -10.1
35. Cc1sc(Br)cc1S(=O)(=O)NCCN.Cl :: -12.99
36. C[C@]1(O)CN(Cc2ncccc2F)CC[C@@H]1Oc1cccc(F)c1 :: 113.6
37. O=C(COCc1ccccc1)N1CCN(Cc2ccccc2F)C(=O)C1 :: -37.48
38. CCOc1ncccc1CNC(=O)N1CCCC1c1cccs1 (configuration not stated) :: -31.15
39. O=C(O)C(F)(F)F.O=C(O)C(F)(F)F.c1ccc(OC2COC3(CCN(CC4CC4)CC3)C2)nc1 (configuration not stated) :: -30.37
40. Cn1ccnc(Nc2ccc3c(c2)CCN3C(=O)c2ccoc2)c1=O :: 61.04
41. CSc1cc2c(cc1NC(=O)NCc1ccco1)OCCO2 :: -2.93
42. C[C@]1(O)CN(Cc2ncc[nH]2)CC[C@@H]1Oc1cccc(F)c1 :: 143.6
